# tested_system: Adenosine receptor A2a (Bos taurus)
# assay_info: Binding affinity towards Adenosine A2A receptor of bovine striatal membrane using [3H]-CGS- at 20 uM
metric: Ki (nM)
Supply the numeric figure in nM, leaving out any unit text.

> print(dat)
                           structure.smiles  metric  measured.result
1  Nc1nc2c(NCc3ccccc3)cccc2n2c(=O)n(-c3ccccc3)nc12      Ki              6.5

Switching to the query record.
IN: Identify the measured Ki of "O=c1n(-c2cccc(F)c2)nc2c(NC3CCCCC3)nc3ccccc3n12" for Adenosine receptor A2a (Bos taurus).
OUT: 66

----------
# tested_system: Adenosine receptor A3 (Homo sapiens, UniProt P0DMS8)
# Sequence (P0DMS8 whole entry): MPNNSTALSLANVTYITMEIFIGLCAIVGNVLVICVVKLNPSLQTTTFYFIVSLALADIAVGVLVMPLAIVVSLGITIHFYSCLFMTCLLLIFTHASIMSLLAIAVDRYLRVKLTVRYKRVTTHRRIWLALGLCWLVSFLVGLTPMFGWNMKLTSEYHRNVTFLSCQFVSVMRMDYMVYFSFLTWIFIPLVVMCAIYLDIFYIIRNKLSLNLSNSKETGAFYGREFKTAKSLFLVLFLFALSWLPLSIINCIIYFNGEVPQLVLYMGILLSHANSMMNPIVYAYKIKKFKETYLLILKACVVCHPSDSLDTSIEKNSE
# assay_info: Binding affinity towards human adenosine A3 receptor expressed in HEK293 cells in presence of [125I]-AB-MECA at a concentration of 1 uM
# Format: cell-based
pKi: −log10 of the molar value.
Output Met for pKi not less than 7; output Not met otherwise.

Check out these entries, answers already filled in.
> print(dat)
                           structure.smiles                             tested.system  assigned.category
1   Cn1c(=O)c2nn(-c3ccccc3)c(=O)n2c2ccccc21  Adenosine receptor A3 (Homo sapiens, UniProt P0DMS8)                Met
2  Cc1cccc(-n2nc3c(NC4CCCC4)nc4ccccc4n3c2=O)c1  Adenosine receptor A3 (Homo sapiens, UniProt P0DMS8)                Met
3  O=c1n(-c2ccccc2)nc2c(NCc3ccccc3)nc3ccccc3n12  Adenosine receptor A3 (Homo sapiens, UniProt P0DMS8)            Not met
4  O=c1n(-c2ccccc2)nc2c(NC3CCCCC3)nc3ccccc3n12  Adenosine receptor A3 (Homo sapiens, UniProt P0DMS8)            Not met
5     Cc1ccc(N2CN3C(=N2)C(=O)Nc2ccccc23)cc1  Adenosine receptor A3 (Homo sapiens, UniProt P0DMS8)            Not met

IN: Does the reported pKi for "O=c1n(-c2cccc(F)c2)nc2c(NC3CCCCC3)nc3ccccc3n12" fall at or above the 7 mark?
OUT: Met

IN: Entry "Cc1ccc(-n2nc3c(=O)[nH]c4ccccc4n3c2=O)cc1" : is its pKi no less than 7?
OUT: Met

IN: Could you tell me if the measured pKi of "O=C(Nc1ccccc1)Nc1nc2ccccc2n2c(=O)n(-c3ccccc3)nc12" reaches 7 or more?
OUT: Not met

IN: Identify whether the reported pKi of the following compound is 7 or greater: "Cc1ccc(-n2nc3c(N)nc4ccccc4n3c2=O)cc1"
OUT: Met

----------
Listed here are compounds together with their documented Ki.
# tested_system: Adenosine receptor A3 (Homo sapiens, UniProt P0DMS8)
# assay_info: Binding affinity towards human adenosine A3 receptor expressed in HEK293 cells in presence of [125I]-AB-MECA at a concentration of 1 uM
# Type: cell-based
Field format: number, assumed nM, no unit text.

> print(dat)
                           structure.smiles  measured.result
1  Cn1c(=O)c2nn(-c3ccc(Cl)cc3)c(=O)n2c2ccccc21              137
2  CCCn1c(=O)c2nn(-c3ccccc3)c(=O)n2c2ccccc21             1250

IN: // fetch Adenosine receptor A3 (Homo sapiens, UniProt P0DMS8) Ki for "O=C(Nc1nc2ccccc2n2c(=O)n(-c3ccccc3)nc12)c1ccccc1"
OUT: 1.47

IN: Notebook: pull reported Ki for Adenosine receptor A3 (Homo sapiens, UniProt P0DMS8), entry "CCC(=O)Nc1nc2ccccc2n2c(=O)n(-c3ccccc3)nc12"
OUT: 15.8

IN: Notebook entry, Adenosine receptor A3 (Homo sapiens, UniProt P0DMS8) assay: Ki of "CC(=O)Nc1nc2ccccc2n2c(=O)n(-c3ccccc3)nc12" = ?
OUT: 2

IN: Param readout = Ki; param system = Adenosine receptor A3 (Homo sapiens, UniProt P0DMS8); param query = "O=c1n(-c2ccc(Cl)cc2)nc2c(NC3CCCCC3)nc3ccccc3n12" ; response: value
OUT: 56.1

IN: Hi! What's the reported Ki for "O=c1n(-c2ccccc2)nc2c(NCCCc3ccccc3)nc3ccccc3n12" on Adenosine receptor A3 (Homo sapiens, UniProt P0DMS8)?
OUT: 40.9

IN: Param readout = Ki; param system = Adenosine receptor A3 (Homo sapiens, UniProt P0DMS8); param query = "Cc1cccc(-n2nc3c(NC4CCCCC4)nc4ccccc4n3c2=O)c1" ; response: value
OUT: 548

IN: Notebook entry, Adenosine receptor A3 (Homo sapiens, UniProt P0DMS8) assay: Ki of "Cc1cccc(-n2nc3c(N)nc4ccccc4n3c2=O)c1" = ?
OUT: 28.5

IN: Return Ki measured with Adenosine receptor A3 (Homo sapiens, UniProt P0DMS8) given this compound: "Cc1cccc(-n2nc3c(=O)[nH]c4ccccc4n3c2=O)c1"
OUT: 91

IN: Entry "COc1ccc(-n2nc3c(N)nc4ccccc4n3c2=O)cc1" , system Adenosine receptor A3 (Homo sapiens, UniProt P0DMS8): what Ki was measured?
OUT: 45.3
